test-target: human 5-hydroxytryptamine-2C (h5-HT2C) receptor (Homo sapiens)
Construct: expressed in transfected cells; host or cells: CHO (Chinese Hamster Ovary) cells; membranes
Sequence (P28335 33-458): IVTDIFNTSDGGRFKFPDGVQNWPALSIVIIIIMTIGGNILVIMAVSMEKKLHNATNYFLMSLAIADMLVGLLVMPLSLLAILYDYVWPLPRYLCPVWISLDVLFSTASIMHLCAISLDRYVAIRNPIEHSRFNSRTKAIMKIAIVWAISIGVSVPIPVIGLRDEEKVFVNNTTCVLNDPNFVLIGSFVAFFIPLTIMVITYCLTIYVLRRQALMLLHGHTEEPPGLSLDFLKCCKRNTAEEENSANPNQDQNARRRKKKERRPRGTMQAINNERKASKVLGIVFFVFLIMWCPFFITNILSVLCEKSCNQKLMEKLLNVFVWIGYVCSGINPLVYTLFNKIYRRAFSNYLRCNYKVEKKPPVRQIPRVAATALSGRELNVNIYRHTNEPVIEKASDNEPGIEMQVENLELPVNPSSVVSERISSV
assay-remarks: [125I]DOI binding affinity at h5-HT2C receptor, CHO cell membranes
particulars: [125I]DOI displacement, CHO membranes expressing h5-HT2C; read-out: 5-HT2C Affinity Ki
observable: log10(Ki) (log10 of the value in nM)
All values: log10 Ki [nM].

Would you please look over these solved cases?
# compound, value-observed
rows = [
    ("NCC1Cc2cc3c(cc2O1)CCCC3 (racemic) [Example 13]", 2.00),
    ("COc1cc2c(c3c1C1CCC3CC1)OC(CN)C2 (racemic) [Example 19]", 0.85),
    ("NCC1Cc2ccc3c(c2O1)CCC3 (single isomer, unassigned; (-)) [Example 3]", 0.70),
]

Give me log10(Ki) for each of these compounds, listed below.
1. NCC1Cc2ccc3ccccc3c2O1 (single isomer, unassigned; (-)) [Example 12]
2. NCC1Cc2c(ccc3c2CCCC3)O1 (racemic) [Example 14]
3. NCC1Cc2c(Cl)cc3c(c2O1)CCC3 (racemic) [Example 25]

Ans.
1: 1.20; 2: 1.28; 3: 1.08

Qu. log10(Ki) lookup needed for COc1cc2c(c3c1C1CCC3CC1)OC(CN)C2 (single isomer, unassigned; (+)) [Example 20] , thanks.
Ans. 1.34
